Attribution: paper PMC8240473

# tested-target: T1, PCNA, purified (yeast, UniProt P15873 1-258)
# T1 sequence (looked up): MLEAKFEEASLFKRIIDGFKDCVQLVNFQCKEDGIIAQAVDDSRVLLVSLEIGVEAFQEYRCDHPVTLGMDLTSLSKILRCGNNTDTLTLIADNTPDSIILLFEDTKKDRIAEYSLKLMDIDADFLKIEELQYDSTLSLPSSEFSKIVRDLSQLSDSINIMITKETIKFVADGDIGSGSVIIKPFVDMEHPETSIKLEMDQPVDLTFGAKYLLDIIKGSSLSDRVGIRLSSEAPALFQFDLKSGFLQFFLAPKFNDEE
# assay-overview: BLI
No end group written: not given here. *: point of attachment. Biotin = O=C1N[C@H]2[C@H](CS[C@H]2CCCCC(=O)*)N1; Ahx = NCCCCCC(=O)O
quantity: pKd
Field pKd (float): negative decimal logarithm of the concentration in molar.

If you can, please state the reported pKd value of {Biotin-Ahx}-QKKQVTSSKNILSFFTRKK [N-terminally biotinylated peptide containing PIP1 of pol η] . 8.14
